Data provenance: patent US20090304651A1

# assayed_target: T1, recombinant human IGF-I (Insulin-like Growth Factor I) (human, UniProt P05019 49-118, biotinylated (Biotinyl-IGF-I, GroPep), site not stated)
# T1 construct: also called IGF1; Biotinyl-IGF-I
# T1 sequence (P05019 49-118 limits assumed): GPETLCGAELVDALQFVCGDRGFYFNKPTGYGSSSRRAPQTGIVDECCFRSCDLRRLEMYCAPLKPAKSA
# experimental_protocol: SPR, biotinylated IGF-I immobilised
# Experimental: Kinetic experiments consisted of a two minute injection of analyte followed by a 100 s dissociation phase in running buffer, after which the binding surface was regenerated with a 2 minute injection of 2 M MgCl₂. […] Kinetic parameters were determined by global fitting of sensorgrams to a two-state (conformational change) binding model using BIAevaluation software version 4.0.1. […]

binder	binding result
Fc-tagged null mutant IGF2R domain 11 (11^I1572A-Fc), human IgG1 Fc at the C-terminus, homodimer from Drosophila D.Mel-2 cells (Fc fusion, N-glycosylated with two 982.9 Da molecules of Man3GlcNAc2, not shown: human IgG1 Fc domain, amplified from IMAGE clone 4851063) NEHDDCQVTNPSTGHLFDLSSLSGRAGFTAAYSEKGLVYMSICGENENCPPGVGACFGQTRASVGKANKRLRYVDQVLQLVYKDGSPCPSKSGLSYKSVISFVCRPEAGPTNRPMLISLDKQTCTLFFSWHTPLACEQAT	no binding
Fc-tagged enhanced mutant IGF2R domain 11 (11^E1544K-Fc), human IgG1 Fc at the C-terminus, homodimer from Drosophila D.Mel-2 cells (Fc fusion, N-glycosylated with two 982.9 Da molecules of Man3GlcNAc2, not shown: human IgG1 Fc domain, amplified from IMAGE clone 4851063) NEHDDCQVTNPSTGHLFDLSSLSGRAGFTAAYSKKGLVYMSICGENENCPPGVGACFGQTRISVGKANKRLRYVDQVLQLVYKDGSPCPSKSGLSYKSVISFVCRPEAGPTNRPMLISLDKQTCTLFFSWHTPLACEQAT	no binding
Fc-tagged wild-type IGF2R domain 11 (11-Fc), human IgG1 Fc at the C-terminus, homodimer from Drosophila D.Mel-2 cells (Fc fusion, N-glycosylated with two 982.9 Da molecules of Man3GlcNAc2, also called 11^Wild type-Fc; 11^Wild type -Fc; not shown: human IgG1 Fc domain, amplified from IMAGE clone 4851063) NEHDDCQVTNPSTGHLFDLSSLSGRAGFTAAYSEKGLVYMSICGENENCPPGVGACFGQTRISVGKANKRLRYVDQVLQLVYKDGSPCPSKSGLSYKSVISFVCRPEAGPTNRPMLISLDKQTCTLFFSWHTPLACEQAT	no binding
